Reference source for all entries: ChEMBL document CHEMBL3885881

Some molecules, each annotated with its measured ABSOLUTE LYMPHOCYTE.
# Species: Rattus norvegicus
# test_protocol: DrugMatrix - Regimen: Daily Repeat
# Assay type: toxicity, organism-based, Sprague-Dawley
# Set-up: regimen Daily Repeat, gender Male, age 6-8 weeks
# condition_details: in vivo, po, 0 mg/kg, 72 h, tissue Blood, route oral GAVAGE, dose level Control, time 3 day, […]

Worked cases, answers included:
- O=c1oc2ccccc2c(O)c1Cc1c(O)c2ccccc2oc1=O: 9244.83 CELLS/uL
- C[C@@H]1CN(c2c(F)c(N)c3c(=O)c(C(=O)O)cn(C4CC4)c3c2F)C[C@H](C)N1: 12761.5 CELLS/uL
- CCOC(=O)C1=C(COCCN)NC(C)=C(C(=O)OC)C1c1ccccc1Cl (centres undefined): 12761.5 CELLS/uL
- Cc1noc(NS(=O)(=O)c2ccc(N)cc2)c1C: 11091.17 CELLS/uL
- O=C(O)CCCc1ccc(N(CCCl)CCCl)cc1: 14547 CELLS/uL
- C[C@H]1O[C@@H](O[C@H]2[C@@H](O)C[C@H](O[C@H]3[C@@H](O)C[C@H](O[C@H]4CC[C@@]5(C)[C@H](CC[C@@H]6[C@@H]5C[C@@H](O)[C@]5(C)[C@@H](C7=CC(=O)OC7)CC[C@]65O)C4)O[C@@H]3C)O[C@@H]2C)C[C@H](O)[C@@H]1O: 8493 CELLS/uL

ABSOLUTE LYMPHOCYTE recorded for this molecule, Cc1oncc1C(=O)Nc1ccc(C(F)(F)F)cc1 [LEFLUNOMIDE] , is 9105.33 CELLS/uL

ABSOLUTE LYMPHOCYTE recorded for this molecule, CC(C)(Oc1ccc(Cl)cc1)C(=O)O , is 14687.67 CELLS/uL

ABSOLUTE LYMPHOCYTE recorded for this molecule, O=NN(CCCl)C(=O)NC1CCCCC1 , is 12761.5 CELLS/uL

----------
Some compounds, each annotated with its measured TOTAL PROTEIN.
# Species on record: Rattus norvegicus
# test_protocol: DrugMatrix - Regimen: Daily Repeat
# Format: toxicity, organism-based, Sprague-Dawley
# Set-up: regimen Daily Repeat, gender Male, age 6-8 weeks
# condition_details: in vivo, iv, 0 mg/kg, 72 h, tissue Plasma, dose level Control, time 3 day, vehicle 100 % SALINE
Starred links: 1 amine or outer side, 2 acyl side, 3 side chain; linkers in the order of their positions; H or OH if unused. Positions of bridges follow the written chain, without caps; N, C: chain ends. Non-standard residues stand in square brackets, D forms with d. Residues, ends and D or L forms follow the SMILES beside them. Chains are numbered I, II in the order given. Actinocin(9to1) = Cc1c2oc3c(C)ccc(C(=O)[*:1])c3nc-2c(C(=O)[*:2])c(N)c1=O; NMeV = CN[C@H](C(=O)O)C(C)C; Sar = CNCC(=O)O
Note: unit G/DL is implicit; provide only the numeric part.

Worked cases, answers included:
* COc1cc2c3cc1Oc1cc(ccc1O)C[C@@H]1c4c(cc(OC)c(O)c4Oc4ccc(cc4)C[C@@H]3N(C)CC2)CC[N+]1(C)C.[Cl-] | 5.77
* CC[C@]1(O)C[C@H]2CN(CCc3c([nH]c4ccccc34)[C@@](C(=O)OC)(c3cc4c(cc3OC)N(C=O)[C@H]3[C@@](O)(C(=O)OC)[C@H](OC(C)=O)[C@]5(CC)C=CCN6CC[C@]43[C@@H]65)C2)C1 | 5.83
* Cc1c2oc3c(C)ccc(C(=O)N[C@@H]4C(=O)N[C@H](C(C)C)C(=O)N5CCC[C@H]5C(=O)N(C)CC(=O)N(C)[C@@H](C(C)C)C(=O)O[C@@H]4C)c3nc-2c(C(=O)N[C@@H]2C(=O)N[C@H](C(C)C)C(=O)N3CCC[C@H]3C(=O)N(C)CC(=O)N(C)[C@@H](C(C)C)C(=O)O[C@@H]2C)c(N)c1=O [DACTINOMYCIN] (I: T[dV]P[Sar][NMeV] / II: T[dV]P[Sar][NMeV]; ester I:1-I:C, II:1-II:C; linker I:N-II:N via Actinocin(9to1)) | 5.87

Continue with the compound presented below.
TOTAL PROTEIN recorded for this compound, Cc1ccc(N(CC2=NCCN2)c2cccc(O)c2)cc1 , is 6.22
